- STUDY_SYSTEM: T1, recombinant MS4A4A soluble polypeptide JS5
- T1 construct: also called JS5.His
- TEST_PROTOCOL: ELISA, 0.33 ug/ml antibody
REPORTED_ENDPOINT: ELISA OD
API note: the answer field is a bare number with no unit suffix.

# BINDER, ELISA OD
rows = [
    ("anti-MS4A4A antibody 4A-352 (antibody, V domains shown, full human IgG) VH: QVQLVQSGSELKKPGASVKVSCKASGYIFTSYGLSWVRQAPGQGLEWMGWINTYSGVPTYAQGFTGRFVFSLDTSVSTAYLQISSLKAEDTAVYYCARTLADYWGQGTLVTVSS VL: DVVMTQSPLSLPVTLGQPASISCKSSRSLLYSGGKTYLSWFQQRPGQSPRRLIYLVSKLDSGVPDRFSGSGSGTDFTLKISRVEAEDVGVYYCWQGIDFHQTFGGGTKVEIK", 0.885),
    ("anti-MS4A4A antibody 4A-377 (antibody, V domains shown, full human IgG) VH: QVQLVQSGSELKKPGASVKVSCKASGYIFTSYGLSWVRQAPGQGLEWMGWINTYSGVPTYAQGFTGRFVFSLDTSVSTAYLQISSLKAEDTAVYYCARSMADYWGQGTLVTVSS VL: DVVMTQSPLSLPVTLGQPASISCKSSRSLLYSGGKTYLSWFQQRPGQSPRRLIYLVSKLDSGVPDRFSGSGSGTDFTLKISRVEAEDVGVYYCWQGIDFHQTFGGGTKVEIK", 0.873),
]

In the following, a different binder is considered.
Which ELISA OD value is on record for anti-MS4A4A antibody 4A-381 (antibody, V domains shown) VH: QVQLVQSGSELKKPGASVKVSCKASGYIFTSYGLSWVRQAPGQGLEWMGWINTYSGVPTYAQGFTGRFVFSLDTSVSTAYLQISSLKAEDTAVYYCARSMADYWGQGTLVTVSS VL: DVVMTQSPLSLPVTLGQPASISCKSSRSLLYSQGKTYLSWFQQRPGQSPRRLIYLVSKLDSGVPDRFSGSGSGTDFTLKISRVEAEDVGVYYCWQGIDFHQTFGGGTKVEIK ?
0.94
